tested on: OVCAR-8 ovarian; test: NCI-60 one-dose screen, 48 h (100 = growth as untreated, 0 = no growth, -100 = all killed); settings: 10 µM unless noted
Compounds without any hit were thinned out: in the full panel of roughly 83,000, 20% have a hit.
Please use fulfilled for growth under 80% and not fulfilled for everything else, ties included.

QUERY: Field: below-cutoff. Rule: recorded growth strictly less than 80%. Subject: `CN(C)CCCOc1c2ccccc2nc2c1oc1ccc(Cl)cc12`
RESULT: fulfilled

QUERY: Check if growth falls below 80% for `CNC(=O)c1cc(-c2ccc(NC(=O)Nc3ccc(N4CCOCC4)c(C(F)(F)F)c3)cc2)nc2cccnc12` .
RESULT: fulfilled

QUERY: Lab note: confirm whether the reported growth for this compound is below 80%, equality not counting. compound: CN1C(=O)N(c2ccccc2)C2N=C(N/N=C/c3ccccc3)SC21 (stereo unspecified)
RESULT: fulfilled

QUERY: Report whether reported growth is lower than 80% (strictly) for `COc1ccc(/C=N/Nc2ccnc3cc(Cl)ccc23)cc1Cl`
RESULT: fulfilled

QUERY: Consider C#Cc1nc(C2=C(C)C(OC(C)=O)/C(=N/OC(C)=O)C2)cs1 (stereo unspecified) . Does its growth lie strictly below 80%?
RESULT: fulfilled

QUERY: Lab log: compare recorded growth with 80%; is it strictly lower for `COc1ccc(C(=O)/C=C/c2ccc(OCc3ccc(C)cc3)c(OC)c2)cc1OC` ?
RESULT: fulfilled

QUERY: is_below(growth, 80%) for `N#Cc1ccc(C(=O)CSc2nc(Nc3ccc(S(N)(=O)=O)cc3)c3ccccc3n2)cc1` ?
RESULT: not fulfilled

QUERY: Is growth strictly under 80% for the entry CCN1C(=S)N(CC)C2C1NN=C1SC(c3ccccc3)=CC(=O)N12 (stereo unspecified) ?
RESULT: not fulfilled

QUERY: Criterion: growth strictly below 80%. Is it met by `C/C(=N\NC(N)=O)c1c(O)sc(=O)[nH]c1=O` ?
RESULT: not fulfilled

QUERY: Confirm or reject: growth of `NS(=O)(=O)c1cccc(Nc2nc(SCC(=O)c3ccc([N+](=O)[O-])cc3)nc3ccccc23)c1` lies strictly below 80%
RESULT: fulfilled

QUERY: Item `Cc1cccc2sc(/N=C(\N)C(Br)Br)nc12` : growth beneath 80%, strictly?
RESULT: fulfilled

QUERY: Strictly below 80%: is that where growth of `C/C(=N/NC(N)=S)c1ccc(Nc2nc(SCC(C)C)nc(-c3ccc(F)cc3)c2C#N)cc1` sits?
RESULT: fulfilled

QUERY: Given the entry `COc1ccc(/C=C2\SC(=Nc3cc(C)[nH]n3)NC2=O)cc1` , would its reported growth be below 80%?
RESULT: not fulfilled

QUERY: Regarding `CN(C)CCCOc1c2ccc(Cl)cc2nc2c1oc1ccccc12` , kindly confirm whether its growth is beneath 80%.
RESULT: fulfilled

QUERY: Bench note: check whether `Cn1c(SCC(=O)c2cccs2)nc2ccccc2c1=O` shows growth below 80%
RESULT: not fulfilled

QUERY: Say whether its growth is strictly beneath 80%. Entry: `COc1cc(/C=C/C(=O)c2ccc(C)cc2)ccc1Oc1nc(NCCO)nc(N2CCOCC2)n1`
RESULT: fulfilled

QUERY: Does `O=C(CSc1nccc(=O)[nH]1)Nc1ccc(-c2nc3ccccc3[nH]2)cc1` have growth strictly under 80%?
RESULT: not fulfilled

QUERY: Here's an entry: `COc1cccc(COc2ccc(/C=C3/C(=O)Nc4cc(Cl)ccc43)cc2)c1` . Is its growth below 80%?
RESULT: not fulfilled

QUERY: Lab log: compare recorded growth with 80%; is it strictly lower for `N=C1CC(=O)NN1C(=O)CSc1nc2sc3c(c2c(=O)n1-c1ccc(Cl)cc1)CCCC3` ?
RESULT: not fulfilled

QUERY: State whether 80% exceeds growth recorded for `CC1=C(C)C(=O)C(Nc2cccc(C(F)(F)F)c2)=C(Cl)C1=O` .
RESULT: not fulfilled

QUERY: Is the reported growth for `CC(=O)Oc1ccccc1C(=O)Nc1cc(C(C)C)ccc1C` strictly below 80%?
RESULT: fulfilled
